test: Cytotoxicity against human C8166 cells by MTT assay; assay type: cell-based
For each record, write down the corresponding CC50.
I'd appreciate it if you included the unit after the number.

COC(=O)/C(C)=C1\C(=O)[C@H](O)[C@]2(C)C3=C(C[C@@H]4[C@]5(OC(=O)C6=C5C[C@H]5[C@](O)(COC(=O)/C=C(\C)COC(=O)[C@@H](O)CC(=O)OC6)[C@H]6C[C@H]6[C@]45C)[C@H]31)[C@H]1C[C@H]12 [SHIZUKAOL H] = 22 nM
COC(=O)/C(C)=C1\C(=O)[C@H](O)[C@]2(C)C3=C(C[C@@H]4[C@]5(OC(=O)C6=C5C[C@H]5[C@](O)(COC(=O)/C=C(\C)COC(=O)CCC(=O)OC6)[C@H]6C[C@H]6[C@]45C)[C@H]31)[C@H]1C[C@H]12 [SHIZUKAOL F] = 47 nM
COC(=O)/C(C)=C1\C(=O)[C@H](O)[C@]2(C)C3=C(C[C@@H]4[C@]5(OC(=O)C6=C5C[C@H]5[C@](O)(COC(=O)/C(C)=C/COC(=O)CCC(=O)OC6)[C@H]6C[C@H]6[C@]45C)[C@H]31)[C@H]1C[C@H]12 [SHIZUKAOL B] = 20 nM

Requested read-out: CC50. Entry: C/C=C(\C)C(=O)OCC1=C2C[C@H]3[C@H](O)[C@H]4C[C@H]4[C@]3(C)[C@@H]3C[C@@]4(O)C5=C(/C(=C(/C)C(=O)OC)C(=O)[C@H](O)[C@@]5(C)[C@@H]5C[C@@H]54)[C@]23OC1=O [SHIZUKAOL C] 89 nM

* * *

tested on: Human immunodeficiency virus 1; assay: Antiviral activity against Human immunodeficiency virus 1 NL 4.3 harboring reverse transcriptase Y181C mutant pseudotyped with VSV-G envelope co-transfected with luciferase gene infected in 293T cells assessed as inhibition of HIV1 replication administered 15 mins prior to infection measured after 48 hrs post infection by luciferase assay; assay type: functional, organism-based; conditions: Human immunodeficiency virus 1, NL 4.3, HEK-293T
pEC50: −log10 of the molar value.
# binarize pEC50: threshold 6 inclusive, high side fulfilled, low side not fulfilled

COC(=O)/C(C)=C1\C(=O)[C@H](O)[C@]2(C)C3=C(C[C@@H]4[C@]5(OC(=O)C6=C5C[C@H]5[C@](O)(COC(=O)/C=C(\C)COC(=O)CCC(=O)OC6)[C@H]6C[C@H]6[C@]45C)[C@H]31)[C@H]1C[C@H]12 [SHIZUKAOL F] = not fulfilled
O=C1Nc2ccc(Cl)cc2[C@@](C#CC2CC2)(C(F)(F)F)O1 [EFAVIRENZ] = fulfilled

Let's switch to this molecule now.
Answer whether pEC50 of COC(=O)/C(C)=C1\C(=O)[C@H](O)[C@]2(C)C3=C(C[C@@H]4[C@]5(OC(=O)C6=C5C[C@H]5[C@](O)(COC(=O)/C(C)=C/COC(=O)CCC(=O)OC6)[C@H]6C[C@H]6[C@]45C)[C@H]31)[C@H]1C[C@H]12 [SHIZUKAOL B] is greater than or equal to 6. fulfilled

* * *

test: Therapeutic index, ratio of CC50 for against human C8166 cells to EC50 for HIV-1; assay type: cell-based; conditions: read-out: Ratio CC50/EC50
# binarize selectivity ratio: threshold 10 inclusive, high side 1.0, low side 0.0

Cc1cn([C@H]2C[C@H](N=[N+]=[N-])[C@@H](CO)O2)c(=O)[nH]c1=O = 1.0
COC(=O)/C(C)=C1\C(=O)[C@H](O)[C@]2(C)C3=C(C[C@@H]4[C@]5(OC(=O)C6=C5C[C@H]5[C@](O)(COC(=O)/C=C(\C)COC(=O)[C@@H](O)CC(=O)OC6)[C@H]6C[C@H]6[C@]45C)[C@H]31)[C@H]1C[C@H]12 = 0.0
COC(=O)/C(C)=C1\C(=O)[C@H](O)[C@]2(C)C3=C(C[C@@H]4[C@]5(OC(=O)C6=C5C[C@H]5[C@](O)(COC(=O)/C(C)=C/COC(=O)CCC(=O)OC6)[C@H]6C[C@H]6[C@]45C)[C@H]31)[C@H]1C[C@H]12 = 1.0
COC(=O)/C(C)=C1\C(=O)[C@H](O)[C@]2(C)C3=C(C[C@@H]4[C@]5(OC(=O)C6=C5C[C@H]5[C@](O)(COC(=O)/C=C(\C)COC(=O)CCC(=O)OC6)[C@H]6C[C@H]6[C@]45C)[C@H]31)[C@H]1C[C@H]12 = 1.0

Let's switch to this compound now.
Answer whether selectivity ratio of C/C=C(\C)C(=O)OCC1=C2C[C@H]3[C@H](O)[C@H]4C[C@H]4[C@]3(C)[C@@H]3C[C@@]4(O)C5=C(/C(=C(/C)C(=O)OC)C(=O)[C@H](O)[C@@]5(C)[C@@H]5C[C@@H]54)[C@]23OC1=O is greater than or equal to 10. 0.0
